Source listed as paper PMC9352680.

Target: T1, PUF4 RNA-binding domain (Saccharomyces cerevisiae, UniProt P25339 537-888)
T1 sequence: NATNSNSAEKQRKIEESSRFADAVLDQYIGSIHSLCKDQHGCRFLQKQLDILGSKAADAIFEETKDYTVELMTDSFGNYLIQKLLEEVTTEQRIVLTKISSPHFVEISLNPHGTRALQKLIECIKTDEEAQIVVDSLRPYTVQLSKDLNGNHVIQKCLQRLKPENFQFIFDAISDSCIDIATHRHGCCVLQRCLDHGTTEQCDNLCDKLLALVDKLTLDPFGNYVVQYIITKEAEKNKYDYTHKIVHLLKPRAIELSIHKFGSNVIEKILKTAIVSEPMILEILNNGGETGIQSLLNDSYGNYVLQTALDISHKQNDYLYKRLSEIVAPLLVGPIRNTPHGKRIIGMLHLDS
Assay: Mg; RNA-MaP; 20 mM Na-HEPES pH 7.4, 30 mM KOAc, 0.75 mM MgCl2, 0.1% Tween-20, 5% glycerol, 0.1 mg/mL BSA, 2 mM DTT; 25 C; 0.0125-409.6 nM protein
Conditions: tags: N-His6-TEV cleaved; C-SNAP kept, Cy3B-labelled; label: tethered on chip by stalled RNA polymerase
pKd: −log10 of the molar value.
Class membership depends on pKd alone; the intervals are low range (below 7), mid range (7 to below 8), high range (8 or more)

Some entries whose results are on file:
BINDER | CLASS
Id_ii_S2_P5E.4_K5.3_C5.2_[T-1C]_H5.3_A5.1_F5.1_T5.2_[T11C]_[A12G] (ssRNA) RNA: UUUGAUUAAUAUGAUAUCGUUCUUUCUCCACACUUAUUACGUUCUUUCUCGAUAUCAUAUUAAUCUUU | low range
UCUCUUUUUAUAUAUUAAUUCUCUU (ssRNA) [Id_ii_S1_P4E.3_K4.2_C4.2_[C-2T]_H4.2_A4.1_F4.1_T4.2_[G10A]] | mid range
Id_ii_S4_P4E.2_K4.1_C4.2_H4.1_A4.1_F4.1_T4.2_[G10T] (ssRNA) RNA: UUUGACAACUGAUCGUUCUUUCUCUUGUAUAUUAUUUUCUUUCUCGAUCAGUUGUCUUU | high range
Ic_S4_P5E.1_K5.1_C5.1_H5.1_A5.1_[T5G]_[A7C]_F5.1_[T8A]_[T9C]_[A10T]_T5.1 (ssRNA) RNA: UUUGACAACUGAUCGUUCUUUCUUGUAGUCACUUUCUUUCUCGAUCAGUUGUCUUU | low range
UCUCUUUUUAUAUAUAAGUCUCUU (ssRNA) [Id_ii_S1_P3E.3_K3.2_C3.2_[C-2T]_H3.2_A3.1_F3.1_T3.2_[T9A]_[A10G]] | low range
UCUCUUUUACACUAUUAGCUCUCUU (ssRNA) [Id_ii_S1_P4E.4_K4.3_C4.2_[C-2T]_H4.3_A4.1_F4.1_T4.2_[T11C]] | low range
Ic_S2_P5E.1_K5.1_C5.1_H5.1_A5.1_[T5A]_[T6C]_[A7C]_F5.1_[T9A]_[A10T]_T5.1 (ssRNA) RNA: UUUGAUUAAUAUGAUAUCGUUCUUUCUUGUAACCUAUUUCUUUCUCGAUAUCAUAUUAAUCUUU | high range
Ic_S2_P5E.1_K5.1_C5.1_H5.1_A5.1_[T5C]_[T6A]_[A7T]_F5.1_[T9A]_T5.1 (ssRNA) RNA: UUUGAUUAAUAUGAUAUCGUUCUUUCUUGUACAUUAAUUCUUUCUCGAUAUCAUAUUAAUCUUU | high range

Field: next binder
Q: Which pKd band matches Ib_S4_P4E.1_K4.1_C4.1_H4.1_A4.1_[A6T]_F4.1_[A9C]_T4.1 (ssRNA) RNA: UUUGACAACUGAUCGUUCUUUCUUGUAUUUUCUUCUUUCUCGAUCAGUUGUCUUU ?
Result: mid range
